Measured inhibition of individual entries
Test system: Botulinum neurotoxin type F light chain protease (Clostridium botulinum)
Protocol: Botulinum neurotoxin type F light chain protease inhibition, multiplex microsphere flow cytometry, validation set (AID 588459)
Settings: multiplex microsphere protease substrate cleavage assay, at 10 µM, hits give high values
Kindly provide the numeric value in % only, without the unit symbol.

Ask: Report inhibition on Botulinum neurotoxin type F light chain protease (Clostridium botulinum) for this entry: c1cc(-c2ccncc2)ccn1
Reply: 0.7

Ask: Report inhibition on Botulinum neurotoxin type F light chain protease (Clostridium botulinum) for this entry: C[N+](C)(C)CCCC(=O)c1ccc2c(c1)OCO2
Reply: -4

Ask: Report inhibition on Botulinum neurotoxin type F light chain protease (Clostridium botulinum) for this entry: O=C(NCc1ccc(N2CCCC2=O)cc1)c1ccc(F)cc1
Reply: 5.2

Ask: Report inhibition on Botulinum neurotoxin type F light chain protease (Clostridium botulinum) for this entry: Cc1ccccc1C(=O)Oc1ccc(Sc2ccc(O)cc2)cc1
Reply: -2

Ask: Report inhibition on Botulinum neurotoxin type F light chain protease (Clostridium botulinum) for this entry: Cc1nc(C)c(C)nc1C
Reply: -1.1

Ask: Report inhibition on Botulinum neurotoxin type F light chain protease (Clostridium botulinum) for this entry: COc1ccc(-c2[nH]ncc2CN(CCO)Cc2cccs2)c(F)c1
Reply: -1.2

Ask: Report inhibition on Botulinum neurotoxin type F light chain protease (Clostridium botulinum) for this entry: Cc1ccccc1C(OCCN(C)C)c1ccccc1 (configuration not stated)
Reply: 1.2

Ask: Report inhibition on Botulinum neurotoxin type F light chain protease (Clostridium botulinum) for this entry: COCCOC(=O)C1=C(C)NC(C)=C(C(=O)OC(C)C)C1c1cccc([N+](=O)[O-])c1 (configuration not stated)
Reply: -2.2

Ask: Report inhibition on Botulinum neurotoxin type F light chain protease (Clostridium botulinum) for this entry: CC1(C(=O)O)CCC(C(=O)NC2CCCCCC2)C1(C)C (configuration not stated)
Reply: -6.8

Ask: Report inhibition on Botulinum neurotoxin type F light chain protease (Clostridium botulinum) for this entry: O=[N+]([O-])c1ccc(O)c2ncccc12
Reply: -1.5

====

Assayed target: Lethal factor (Bacillus anthracis) (UniProt P15917)
Sequence (P15917 whole entry, looked up): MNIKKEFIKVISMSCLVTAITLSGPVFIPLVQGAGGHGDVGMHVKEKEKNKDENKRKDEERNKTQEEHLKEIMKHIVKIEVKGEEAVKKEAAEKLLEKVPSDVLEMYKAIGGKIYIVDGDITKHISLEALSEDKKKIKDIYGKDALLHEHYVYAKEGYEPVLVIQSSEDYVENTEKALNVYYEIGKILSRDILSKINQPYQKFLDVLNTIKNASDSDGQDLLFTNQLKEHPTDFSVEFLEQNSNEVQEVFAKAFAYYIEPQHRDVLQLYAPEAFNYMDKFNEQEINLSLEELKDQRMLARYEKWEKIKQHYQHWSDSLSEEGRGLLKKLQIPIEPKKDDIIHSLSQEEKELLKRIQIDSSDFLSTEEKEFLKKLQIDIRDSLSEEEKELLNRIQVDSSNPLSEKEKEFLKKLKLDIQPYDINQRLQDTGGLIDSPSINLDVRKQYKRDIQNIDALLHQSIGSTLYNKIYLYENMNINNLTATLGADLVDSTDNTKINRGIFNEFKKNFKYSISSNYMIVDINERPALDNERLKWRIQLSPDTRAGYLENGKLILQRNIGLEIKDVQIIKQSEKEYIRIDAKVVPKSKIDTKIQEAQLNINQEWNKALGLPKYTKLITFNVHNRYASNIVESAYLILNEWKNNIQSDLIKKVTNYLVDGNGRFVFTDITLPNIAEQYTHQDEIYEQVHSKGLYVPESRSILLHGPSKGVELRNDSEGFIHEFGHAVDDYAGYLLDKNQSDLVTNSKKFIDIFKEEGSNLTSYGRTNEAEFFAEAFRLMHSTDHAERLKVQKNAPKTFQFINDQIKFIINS
Protocol: Lethal factor protease inhibitors, Bacillus anthracis, multiplex microsphere cleavage assay, validation set (AID 588461)
Settings: flow cytometry, at 10 µM, hits give high values
Measured inhibition of individual entries
Kindly provide the numeric value in % only, without the unit symbol.

Compound	Measurement
Nc1nnc(CSCc2ccc(Cl)cc2Cl)s1	6.8
CSCCC(NC(=O)OC(C)(C)C)C(=O)Oc1ccc2c(=O)c(-c3ccc4c(c3)OCCO4)coc2c1 (stereo not drawn)	-1.7
c1ccc(-c2ccc(C(c3ccccc3)n3ccnc3)cc2)cc1 (stereo not drawn)	-1.4

Ask: Report inhibition on Lethal factor (Bacillus anthracis) (UniProt P15917) for this entry: COC(=O)CN1C(=S)N(c2ccc(F)cc2)C(=O)C1CC(=O)Nc1ccccc1 (stereo not drawn)
Reply: -5.6

Ask: Report inhibition on Lethal factor (Bacillus anthracis) (UniProt P15917) for this entry: N=c1c[n+](N2CCOCC2)[n-]o1
Reply: 0.2

====

System: Botulinum neurotoxin type F light chain protease (Clostridium botulinum)
Protocol: Botulinum neurotoxin type F light chain protease inhibition, multiplex microsphere flow cytometry, validation set (AID 588459)
Settings: multiplex microsphere protease substrate cleavage assay, at 10 µM, hits give high values
Activity calls are given as the source filed them. The rule behind the calls is not given here.
Reported endpoint: inhibition

Some molecules with known inhibition results, for comparison:
In [3]: df
Out[3]:
                                   molecule       measurement
0             CCN(CCCCCN(C)C)Cc1cc2ccccc2o1   4.7% (inactive)
1  CC(C)C(CCN1C(=O)CCC1=O)C1CCOC(C)(C)C1 (centres undefined)     3% (inactive)
2  CC(=O)C1=C(O)C(=O)N(CC(=O)O)C1c1ccccc1Cl (centres undefined)  -1.5% (inactive)
3                   Cc1ccsc1/C=C/C1=NCCCN1C  -0.9% (inactive)
4  CN(C)[C@@H]1C(=O)C(C(N)=O)=C(O)[C@@]2(O)C(=O)C3=C(O)c4c(O)cccc4[C@@](C)(O)[C@H]3[C@H](O)[C@@H]12  -9.4% (inactive)
5  COc1ccc(CCN=C(N)C(C)c2ccccc2)cc1OC (centres undefined)  -0.2% (inactive)
6                 CNC[C@H](O)c1ccc(O)c(O)c1  -2.9% (inactive)
7       CC(=O)c1cc2c(cc1NC(=O)c1ccco1)OCCO2  -1.7% (inactive)

Ask: Report inhibition, nothing else, for this molecule: CN(C)CCC(c1ccc(Br)cc1)c1ccccn1 (centres undefined)
Reply: 1.3% (inactive)

Ask: Report inhibition, nothing else, for this molecule: Cn1c([N+](=O)[O-])cnc1COC(N)=O
Reply: 1.4% (inactive)

Ask: Report inhibition, nothing else, for this molecule: CC(C)OC(=O)CC1C(=O)NCCN1C(=S)NC(=O)c1cccs1 (centres undefined)
Reply: 0.8% (inactive)

Ask: Report inhibition, nothing else, for this molecule: Cc1ncc([N+](=O)[O-])n1CC(C)O (centres undefined)
Reply: -0.2% (inactive)

Ask: Report inhibition, nothing else, for this molecule: CC1(C)CC(=O)C(C(=O)CCCCC(=O)C2C(=O)CC(C)(C)CC2=O)C(=O)C1
Reply: 1.2% (inactive)

Ask: Report inhibition, nothing else, for this molecule: C#CCOc1ccc2c(C)cc(=O)oc2c1
Reply: -2.9% (inactive)

Ask: Report inhibition, nothing else, for this molecule: CCCCNc1cc(C(=O)O)cc(S(N)(=O)=O)c1Oc1ccccc1
Reply: 2.6% (inactive)

Ask: Report inhibition, nothing else, for this molecule: CC1(C)Cc2ccccc2-c2n[nH]c(=S)n21
Reply: -0.3% (inactive)

Ask: Report inhibition, nothing else, for this molecule: CN1[C@@H]2CC(OC(=O)[C@H](CO)c3ccccc3)C[C@H]1[C@@H]1O[C@@H]12 (some centres undefined)
Reply: -2.9% (inactive)

Ask: Report inhibition, nothing else, for this molecule: O=c1c(-c2ccc3c(c2)OCCO3)coc2cc(OC3OC(CO)C(O)C(O)C3O)ccc12 (centres undefined)
Reply: 0.2% (inactive)
